Tested on: SB.msgc-1
Assay: area under the dose-response curve of % viability (trapezoidal, 11 doses) (% viability x log10 concentration); higher = less cytotoxic
Conditions: SB.msgc-1 (sporadic gastric cancer)
This listing pairs compounds with measured area under the dose-response curve.
Give your answer as a number; write no unit.

Consider the worked cases shown below.
INSERT INTO measurements (compound, observation_type, result_value) VALUES
  ('Cc1nc2cnc3ccc(C#Cc4cccnc4)cc3c2n1-c1ccc(C(C)(C)C#N)cc1 [BAG-956] (top concentration 46.0829 µM)', 'area under the dose-response curve', 343),
  ('C=C[C@H]1CN2CCC1C[C@H]2[C@H](O)c1ccnc2ccc(OC)cc12 (stereo partly drawn) [Quinine] (top concentration 46.0829 µM)', 'area under the dose-response curve', 404);

Then this compound:
What value of area under the dose-response curve has been reported for the following compound? OC1=CC=C(C=C1)\C2=C\C(=O)C3=C(O2)C=C(O)C=C3O [Apigenin] (top concentration 46.0829 µM)
499
